# Tested on: Acinetobacter baumannii
# SETTINGS: Acinetobacter baumannii ATCC 19606; broth microdilution in CAMHB
# Protocol: MICs of the lipopeptides (trifluoroacetic acid salt, TFA) were determined by broth microdilution in cation-adjusted Mueller-Hinton broth (CAMHB) (Oxoid Australia, Thebarton, SA, Australia) according to Clinical and Laboratory Standards Institute standards (Clinical and Laboratory Standards Institute. Performance standards for antimicrobial susceptibility testing; eighteenth informational supplement M100-S18. Wayne, Pa., 2008). Polymyxin B (sulphate) was employed as control. […]
Positions of bridges follow the written chain, without caps; N, C: chain ends. Non-standard residues stand in square brackets, D forms with d. Residues, ends and D or L forms follow the SMILES beside them. *: point of attachment. Benzoyl(3,5-Cl2) = O=C(c1cc(Cl)cc(Cl)c1)*; Phenylacetyl(3-Cl) = O=C(Cc1cccc(Cl)c1)*; Benzoyl(2,3-Cl2) = O=C(c1cccc(Cl)c1Cl)*; Benzoyl(3-Cl) = O=C(c1cccc(Cl)c1)*; Dab = NCC[C@H](N)C(=O)O; Abu = CC[C@H](N)C(=O)O; Dap = NC[C@H](N)C(=O)O; PhAc = O=C(Cc1ccccc1)*
# maps each entry to its Minimum inhibitory concentration, Ab ATCC 19606
Give a bare numeral; the unit µg/mL is implied.

Worked cases, answers included:
Ask: Look up Minimum inhibitory concentration, Ab ATCC 19606 for this molecule: CC[C@@H]1NC(=O)[C@@H](CC(C)C)NC(=O)[C@H](CCN)NC(=O)[C@@H](NC(=O)[C@H](CN)NC(=O)[C@@H](NC(=O)[C@H](CCN)NC(=O)Cc2cccc(Cl)c2)[C@@H](C)O)CCNC(=O)[C@H]([C@@H](C)O)NC(=O)[C@H](CCN)NC(=O)[C@H](CCN)NC1=O [Compound 79] ({Phenylacetyl(3-Cl)}-[Dab]T[Dap][Dab][Dab][dL][Abu][Dab][Dab]T; lactam 4-C)
Result: 1

Ask: Now this one: CC[C@@H]1NC(=O)[C@@H](CC(C)C)NC(=O)[C@H](CCN)NC(=O)[C@@H](NC(=O)[C@H](CN)NC(=O)[C@@H](NC(=O)[C@H](CCN)NC(=O)c2cccc(Cl)c2)[C@@H](C)O)CCNC(=O)[C@H]([C@@H](C)O)NC(=O)[C@H](CCN)NC(=O)[C@H](CCN)NC1=O [Compound 88] ({Benzoyl(3-Cl)}-[Dab]T[Dap][Dab][Dab][dL][Abu][Dab][Dab]T; lactam 4-C)
Result: 2

***
Ask: Request the reported Minimum inhibitory concentration, Ab ATCC 19606 associated with CC(C)C[C@H]1NC(=O)[C@H](CCN)NC(=O)[C@@H](NC(=O)[C@H](CN)NC(=O)[C@@H](NC(=O)[C@H](CCN)NC(=O)c2cc(Cl)cc(Cl)c2)[C@@H](C)O)CCNC(=O)[C@H]([C@@H](C)O)NC(=O)[C@H](CCN)NC(=O)[C@H](CCN)NC(=O)[C@H](C)NC1=O [Compound 117] ({Benzoyl(3,5-Cl2)}-[Dab]T[Dap][Dab][Dab][dL]A[Dab][Dab]T; lactam 4-C)
Result: 1

Ask: CC[C@@H]1NC(=O)[C@@H](CC(C)C)NC(=O)[C@H](CCN)NC(=O)[C@@H](NC(=O)[C@H](CN)NC(=O)[C@@H](NC(=O)[C@H](CCN)NC(=O)c2cccc(Cl)c2Cl)[C@@H](C)O)CCNC(=O)[C@H]([C@@H](C)O)NC(=O)[C@H](CCN)NC(=O)[C@H](CCN)NC1=O [Compound 90] ({Benzoyl(2,3-Cl2)}-[Dab]T[Dap][Dab][Dab][dL][Abu][Dab][Dab]T; lactam 4-C) , same question.
Result: 2

Ask: Then what about the molecule CC(C)C[C@H]1NC(=O)[C@H](CCN)NC(=O)[C@@H](NC(=O)[C@@H](CO)NC(=O)[C@@H](NC(=O)[C@H](CCN)NC(=O)Cc2ccccc2)[C@@H](C)O)CCNC(=O)[C@H]([C@@H](C)O)NC(=O)[C@H](CCN)NC(=O)[C@H](CCN)NC(=O)[C@H]([C@@H](C)O)NC1=O [Compound 12] (PhAc-[Dab]T[dS][Dab][Dab][dL]T[Dab][Dab]T; lactam 4-C) ?
Result: 4

The measured values listed here are drawn from patent USRE48335E1.
